Tested on: Sonic hedgehog protein (Shh)
Assay: small-molecule binders of Shh protein, primary screen, biochemical, small-molecule microarray, 635/667 nm fluorescence (AID 1151);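 further: Shh protein binding to compounds spotted on small-molecule microarray slides; score combines spot fluorescence intensity with signal-to-noise across triplicate slides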
Details: small-molecule microarray binding, 635 nm fluorescence; higher = more signal

{"compound": "COCCOC(=O)N1C(=O)[C@@]2(c3cc(C#CC4(O)CCCCCC4)ccc31)[C@H](C(N)=O)[C@H]1C(=O)O[C@H](c3ccccc3)[C@H](c3ccccc3)N1[C@@H]2c1ccc(O)cc1", "composite z-score": 0.778}
{"compound": "[N-]=[N+]=NCc1ccccc1C[C@@]1(C(=O)NCCN2CCOCC2)N=C(c2ccc(OCCCO)cc2)O[C@@H]1c1ccccc1N=[N+]=[N-]", "composite z-score": -0.492}
{"compound": "O=C1O[C@@H](c2ccccc2)[C@@H](c2ccccc2)N2[C@@H](c3ccccc3OCCO)[C@]3(C(=O)Nc4ccc(C#CC5=CCCCC5)cc43)[C@@H](C(=O)NC[C@H](O)c3ccccc3)[C@H]12", "composite z-score": 1.99}
{"compound": "CCOC(=O)C[C@H]1[C@H](OC(=O)c2ccc(-c3ccccc3)cc2)[C@@H](NC(=O)c2ccc3ccccc3c2)c2cc(OCCCO)ccc2N1C(=O)c1ccc2ccccc2n1", "composite z-score": 0.539}
{"compound": "O=C1O[C@@H](c2ccccc2)[C@@H](c2ccccc2)N2[C@@H](c3ccc(O)cc3)[C@]3(C(=O)Nc4ccccc43)[C@@H](C(=O)Nc3nc4ccccc4s3)[C@H]12", "composite z-score": 0.183}
{"compound": "Cc1ccc(S[C@]2(C(=O)NCCN3CCOCC3)CC(=O)N(Cc3ccccc3C(F)(F)F)[C@@H]2c2ccc(CO)cc2I)cc1", "composite z-score": -0.245}
{"compound": "C[C@H]1C2=C3C(CC[C@H]4C(OCc5ccc(F)cc5C(F)(F)F)OC[C@](C)([C@@H]34)N(C(=O)OC(C)(C)C)C2)C2COC(=O)OCC21 (some centres not stated)", "composite z-score": -0.789}
{"compound": "CC(C)N1CC=CC23O[C@@H]4C=CCCOC(=O)C4[C@H]2C(=O)N(CCO)[C@@H]3C1=O (some centres not stated)", "composite z-score": -0.0837}
{"compound": "C=CCC(OC(C)=O)[C@@H]1[C@@H](N(Cc2cc3ccccc3o2)C(=O)Cc2ccc(F)cc2)c2cc(OCCCO)ccc2N1C(=O)c1ccc2ccccc2n1 (some centres not stated)", "composite z-score": 0.0974}
{"compound": "CN(C)C(=O)[C@]1(CCC(=O)OC(C)(C)C)N=C(c2ccc(OCCCO)cc2)O[C@@H]1c1ccccc1", "composite z-score": -0.857}
{"compound": "O=C1OC[C@@H](c2ccccc2)N2CC(/C=C/c3ccccc3)=CC12 (some centres not stated)", "composite z-score": -1.05}
{"compound": "CN1C(=O)[C@@]2(CCS(=O)(=O)c3ccccc3)N=C(c3ccc(OCCCO)cc3)O[C@H]2c2ccccc21", "composite z-score": 0.203}
{"compound": "O=C1O[C@@H](c2ccccc2)[C@@H](c2ccccc2)N2[C@@H](c3ccccc3OCCO)[C@]3(C(=O)Nc4ccccc43)[C@@H](C(=O)NC[C@H](O)c3ccccc3)[C@H]12", "composite z-score": 0.0935}
{"compound": "COC(=O)[C@@]1(Cc2ccccc2)[C@H]2c3cc(C(=O)N4CCCC4)n(C[C@H](O)CO)c3C[C@H]2CN1C(=O)c1ccccc1", "composite z-score": 0.139}
{"compound": "CCCC[C@@H]1C[C@H]1[C@@H](NC(=O)c1ccccc1)c1ccc(Cl)cc1", "composite z-score": -1.34}
{"compound": "CCOC(=CC(=O)OC)CC(O)c1cccc(Cl)c1 (configuration not stated)", "composite z-score": -0.41}
{"compound": "COC(=O)[C@@]1(Cc2ccc(F)cc2)[C@H]2c3cc(C(=O)N4CCCC4)n(CCc4c[nH]c5ccc(OC)cc45)c3C[C@H]2CN1C(=O)c1ccccc1", "composite z-score": 0.0332}
{"compound": "C[C@]1(C(=O)NC2CC2)c2ccccc2C(=O)N(Cc2ccc(OC(F)(F)F)cc2)[C@H]1c1ccc(CO)cc1", "composite z-score": -0.379}
{"compound": "O=C(O)[C@H](Cc1ccccc1)n1cc(-c2ccccn2)nn1", "composite z-score": 0.506}
{"compound": "NC(=O)N1C(=O)C2C(C1=O)C1C=C(CCCO)C2C(c2cccs2)N1Cc1cc2c(cc1Br)OCO2 (configuration not stated)", "composite z-score": 0.0313}
{"compound": "O=C1c2ccccc2[C@](Cc2ccccc2I)(C(=O)NCCN2CCOCC2)[C@H](c2ccc(CO)cc2)N1Cc1ccccc1", "composite z-score": 1.21}
{"compound": "O=C1c2ccccc2[C@](Cc2ccccc2I)(C(=O)NCc2ccccc2)[C@H](c2ccc(CO)cc2)N1C1CCCCC1", "composite z-score": 1.75}
{"compound": "COc1ccc([Si](C)(C)[C@H]2[C@H](CC(=O)N3Cc4ccccc4C[C@H]3CO)O[C@@]3(C(=O)N(Cc4cccc(N5CCCCC5=O)c4)c4ccccc43)[C@@H]2C)cc1", "composite z-score": 2.15}
{"compound": "COc1ccc([Si](C)(C)[C@H]2[C@H](CCn3cc(CCO)nn3)O[C@@]3(C(=O)N(Cc4ccc(N5C(=O)c6cccc7cccc5c67)cc4)c4ccccc43)[C@@H]2C)cc1", "composite z-score": 2.08}
{"compound": "C[C@H]1ON(c2ccc(C(=O)OC(C)(C)C)cc2)[C@@H](c2ccc(O)cc2)[C@@H]1C(=O)N1C(=O)OC[C@@H]1c1ccccc1", "composite z-score": 1.97}
{"compound": "COCCOC(=O)N1C(=O)[C@@]2(c3cc(C#Cc4ccc(OC)cc4)ccc31)[C@H](C(=O)N1CCN(c3ncccn3)CC1)[C@H]1C(=O)O[C@H](c3ccccc3)[C@H](c3ccccc3)N1[C@@H]2c1ccccc1OCCO", "composite z-score": 1.01}
{"compound": "Cc1c(NC(=O)/C(C#N)=C/C=C/c2ccccc2[N+](=O)[O-])c(=O)n(-c2ccccc2)n1C", "composite z-score": 0.844}
